Cited source: PubChem BioAssay AID248

Listed below: T/C values for each entry.
# Test system: L1210 leukemia ip in BDF1 mice, survival T/C
# Test Protocol: NCI In Vivo Anticancer Drug Screen. Data for tumor model L1210 Leukemia (intraperitoneal) in B6D2F1 (BDF1) mice
# Assay Conditions: endpoint: mean survival time; dose: 400.0 mg/kg/injection; schedule: Q01DX009 (ip); vehicle: Klucel (hydroxypropylcellulose) (HPC); higher = longer survival
Inconclusive results and toxic doses are left out.
Parameter: T/C

>>> result("CN(C)c1ccc(/C=N/NC(=O)c2ccccc2NC(=O)c2ccc(Cl)cc2)c(Cl)c1")
"90 % of control"
>>> result("Cc1ccc(Cl)cc1NC(=O)/C=C/c1ccccc1")
"102 % of control"
>>> result("O=C1c2c(O)ccc([N+](=O)[O-])c2C(=O)c2c([N+](=O)[O-])ccc(O)c21")
"103 % of control"
>>> result("CC1C(=O)OC(C)(C)OC1=O")
"103 % of control"
>>> result("OC(Cc1ccc2ccccc2n1)C(Cl)(Cl)Cl (centres undefined)")
"101 % of control"
>>> result("O=C(Nc1cc(S(=O)(=O)F)ccc1Cl)c1ccc2ccccc2c1O")
"95 % of control"
>>> result("CC(C)=C1C2CCC1C(CO)C2CO (centres undefined)")
"104 % of control"
>>> result("COc1ccc(N=C(C)CC(C)=O)cc1")
"102 % of control"
>>> result("CCOC(=O)c1ccc(NC(=O)Oc2cc(C)ccc2C)cc1")
"90 % of control"
>>> result("NC(=O)CCC(NC(=O)OCc1ccccc1)C(=O)O (centres undefined)")
"109 % of control"
>>> result("O=C(Nc1cc(C(F)(F)F)ccc1Cl)Nc1ccc(Cl)cc1[N+](=O)[O-]")
"100 % of control"
>>> result("Cc1ccc(NC(=O)COc2ccc(Cl)cc2)c([N+](=O)[O-])c1")
"91 % of control"
>>> result("CC(=O)OC1OC(COC(=O)c2ccccc2)C(OC(=O)c2ccccc2)C1OC(=O)c1ccccc1 (centres undefined)")
"92 % of control"
>>> result("Cc1ccc(Cl)cc1NC(=O)C(c1ccccc1)c1ccccc1")
"95 % of control"

---

# System: L1210 leukemia ip in BDF1 mice, survival T/C
# Test Protocol: NCI In Vivo Anticancer Drug Screen. Data for tumor model L1210 Leukemia (intraperitoneal) in B6D2F1 (BDF1) mice
# Assay Conditions: endpoint: mean survival time; dose: 100.0 mg/kg/injection; schedule: Q04DX003 (ip); vehicle: Klucel (hydroxypropylcellulose) (HPC); higher = longer survival
Toxic doses and inconclusive results are not listed.
Parameter: T/C

>>> result("CN1C(=O)NC2ON=C(c3ccccc3)C2C1=O (stereo unspecified)")
"100 % of control"
>>> result("CN(CCCl)C(=O)Nc1ccc(Cl)cc1")
"94 % of control"
>>> result("Cc1ccc(NC(=O)COc2ccc(Cl)cc2)c(C)c1")
"96 % of control"
>>> result("OCCSC(SCCO)=C(SCCO)SCCO")
"97 % of control"
>>> result("COC(=O)c1cc2c(s1)C(=O)c1ccccc1-2")
"104 % of control"
>>> result("Cc1cc[c]([Hg][c]2ccc(C)cc2)cc1")
"97 % of control"
>>> result("Cc1[nH]c(=S)[nH]c(=O)c1CC(O)c1ccccc1 (stereo unspecified)")
"92 % of control"
>>> result("CC(=O)C1=C(O)C(c2ccccc2)c2ccccc21 (stereo unspecified)")
"100 % of control"
>>> result("CC(C)NC(=O)c1ccccc1")
"96 % of control"
>>> result("CC(=O)Nc1ccc(/C=C/C(=O)c2ccc(C)cc2)cc1")
"104 % of control"
>>> result("[C](#[C][Sn]([c]1ccccc1)([c]1ccccc1)[c]1ccccc1)[Sn]([c]1ccccc1)([c]1ccccc1)[c]1ccccc1")
"94 % of control"
>>> result("O=C1NOCC1N=Cc1ccccc1O (stereo unspecified)")
"102 % of control"
>>> result("O=C(c1ccccc1)N(Nc1ccccc1)c1ccccc1")
"98 % of control"
>>> result("Clc1ccc(Cl)c(CBr)c1Cl")
"101 % of control"
>>> result("BrC1CCCCCC(Br)C12OCCO2 (stereo unspecified)")
"102 % of control"
>>> result("Cc1ccc(NC(=O)c2ccc(C)c(NC(=O)C(F)(F)F)c2)c(C)c1")
"100 % of control"
